B1: PRAME (parent)
chain: KKLKIFAMPMQDIKMILKMVQLDS

# Variants of: B1
# PROTOCOL DETAILS: protein stability index of a GFP-peptide fusion (GPS, HEK-293T) (PSI 1-6); higher = more stable;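 note: lentivirally expressed fusions sorted by FACS into six bins by GFP to DsRed ratio, PSI derived from sequencing read proportions per bin multiplied by bin number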
# MEASUREMENT CONDITIONS: c terminus: a fixed tail appended
EXPERIMENTAL READOUT: protein stability index
Give the figure by itself; no unit, no explanation.

> print(dat)
   change  measured.result
1    K18R             3.54
2    Q21P             3.91
3    I16V             2.48
4    K18N             1.99
5    K14E             2.98

GET /value?item= M10G &field=protein stability index returns 3.5

GET /value?item= Q21T &field=protein stability index returns 3.42

GET /value?item= Q11M &field=protein stability index returns 2.31

GET /value?item= Q21G &field=protein stability index returns 3.64

GET /value?item= K14R &field=protein stability index returns 1.65

Attribution: the supplement of paper PMC10567573
